# Test target: human non-pancreatic sPLA2 (type IIa) (Homo sapiens, UniProt P14555)
# Construct: Garvan Institute for Medical Research (provided, not a commercial vendor)
# Sequence (P14555 21-144): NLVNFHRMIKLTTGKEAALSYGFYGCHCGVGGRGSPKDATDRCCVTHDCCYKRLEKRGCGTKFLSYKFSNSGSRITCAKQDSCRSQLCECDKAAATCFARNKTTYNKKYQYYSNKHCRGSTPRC
# Run description: Assay for inhibition of human non-pancreatic sPLA2 (type IIa), mixed micelle colorimetric assay
# Conditions: recombinant hIIa-PLA2; substrate diheptanoyl thio-phosphatidyl choline, DTNB detection; IC50 from Dixon plot extrapolation; read-out: IC50, inhibition of human secretary PLA2
pIC50: −log10 of the molar value.
Listed next: entries and their corresponding pIC50.
Result type: pIC50

{"Molecule": "O=C(O)CCC(CCc1ccccc1)NC(=O)CCCCCCc1ccccc1 (racemic)", "Test target": "human non-pancreatic sPLA2 (type IIa) (Homo sapiens, UniProt P14555)", "Result type": "pIC50", "Reported value": 5.82}
{"Molecule": "O=C(O)CC[C@@H](CCc1ccc(Oc2ccccc2)cc1)NC(=O)CCCCCCc1ccccc1", "Test target": "human non-pancreatic sPLA2 (type IIa) (Homo sapiens, UniProt P14555)", "Result type": "pIC50", "Reported value": 7.00}
{"Molecule": "CC(=O)Nc1cccc(CCCCCCC(=O)NC(CCC(=O)O)Cc2ccc(OCc3ccccc3)cc2)c1 (racemic)", "Test target": "human non-pancreatic sPLA2 (type IIa) (Homo sapiens, UniProt P14555)", "Result type": "pIC50", "Reported value": 5.09}
